# binding signal per record follows
# Target Under Test: T1, RBFOX1 RRM (Homo sapiens, UniProt Q9NWB1 109-208)
# T1 sequence: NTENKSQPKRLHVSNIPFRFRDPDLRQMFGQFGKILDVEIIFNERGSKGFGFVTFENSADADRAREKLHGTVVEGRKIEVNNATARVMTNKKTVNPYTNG
# Assay Info: EMSA; HiTS-Eq, 1 nM pool, 10 min; buffer printed only for the single-RNA assays: 10 mM Tris pH 7.5, 150 mM NaCl, 3.4 mM EDTA, 0.001% NP-40, 30 C
# Condition Notes: tags: His6 N-terminal (pET28a); label: 5' 32P
In all, about 16,000 sequences were measured (“ka relative to ugcaugu”: median about 0.0091, highest 2% from about 0.032 on). For the sample, the highest values were picked, then their nearest neighbours and some sequences at random.

GUGUGCG (DNA:RNA) RNA: GGGAGACCGGAAUUCAGAUUGUCCGUGUGCGUUAAAUCCCGUCGUAGCCACCA DNA 1: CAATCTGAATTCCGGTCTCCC DNA 2: TGGTGGCTACGACGGGATT ... 0.0191 KA relative to UGCAUGU
UUGCGUC (DNA:RNA) RNA: GGGAGACCGGAAUUCAGAUUGUCCUUGCGUCUUAAAUCCCGUCGUAGCCACCA DNA 1: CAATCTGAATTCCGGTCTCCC DNA 2: TGGTGGCTACGACGGGATT ... 0.0198 KA relative to UGCAUGU
UUGAAGG (DNA:RNA) RNA: GGGAGACCGGAAUUCAGAUUGUCCUUGAAGGUUAAAUCCCGUCGUAGCCACCA DNA 1: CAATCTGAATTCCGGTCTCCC DNA 2: TGGTGGCTACGACGGGATT ... 0.0111 KA relative to UGCAUGU
AUUUUUU (DNA:RNA) RNA: GGGAGACCGGAAUUCAGAUUGUCCAUUUUUUUUAAAUCCCGUCGUAGCCACCA DNA 1: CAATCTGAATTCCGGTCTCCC DNA 2: TGGTGGCTACGACGGGATT ... 0.007 KA relative to UGCAUGU
GUCAUUG (DNA:RNA) RNA: GGGAGACCGGAAUUCAGAUUGUCCGUCAUUGUUAAAUCCCGUCGUAGCCACCA DNA 1: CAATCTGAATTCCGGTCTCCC DNA 2: TGGTGGCTACGACGGGATT ... 0.0126 KA relative to UGCAUGU

# input for lookup
binder CUGCAUA (DNA:RNA) RNA: GGGAGACCGGAAUUCAGAUUGUCCCUGCAUAUUAAAUCCCGUCGUAGCCACCA DNA 1: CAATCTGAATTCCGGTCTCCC DNA 2: TGGTGGCTACGACGGGATT , binding signal observed: 0.017 KA relative to UGCAUGU
